Data provenance: PubChem BioAssay (NCI)

Tested on: SK-MEL-5 melanoma
Test: NCI-60 one-dose screen, 48 h (100 = growth as untreated, 0 = no growth, -100 = all killed)
Details: 10 µM unless noted
Experimental: Growth inhibition of the SK-MEL-5 human tumor cell line is measured as a screen for anti-cancer activity. Cells are grown in 96 well plates and exposed to the test compound for 48 hours. Compounds are tested at a single concentration, which is 10^-5 M for most compounds. The reported endpoint is percent growth (GI% or GIPRCNT), where numbers from 0 - 100% represent growth inhibition, and numbers from -100% - 0 represent cell death. For example, a value of 40 represents 60% growth inhibition. […]
This is part of a sample that, as a whole, favours compounds with a hit. Of some 83,000 tested, about 20% had one in any assay.
Please assign No whenever growth is at or above 70%, and Yes whenever it is below.

Prompt line: Item "CCCCCN1C=C/C(=C\C(=O)N(C)c2ccc(Br)cc2)c2ccccc21" : growth beneath 70%, strictly?
Response line: No

Prompt line: Does the reported growth of the following molecule sit strictly below 70%? "COc1cc(Nc2cc(O)c3c(=O)cc(-c4ccccc4)oc3c2)cc(OC)c1"
Response line: Yes

Prompt line: is_below(growth, 70%) for "Fc1ccc2nc3c(cc2c1)CSc1nnc(-c2ccc[nH]c2=S)n1N3" ?
Response line: No

Prompt line: is_below(growth, 70%) for "CC[C@H](C)[C@@H]1NC(=O)[C@H](Cc2ccc(O)cc2)N(C)C(=O)[C@H](Cc2ccccc2)NC(=O)CN(C)C(=O)[C@@H]2CCCN2C(=O)[C@@H](Cc2ccccc2)N(C)C(=O)[C@H](CC(C)C)NC1=O" ?
Response line: Yes

###

System: M14 melanoma
Assay: NCI-60 one-dose screen, 48 h
Conditions: 10 µM unless noted
The panel holds about 83,000 compounds, 20% with a hit somewhere; the sample as a whole holds those more often. The source made the active and inactive calls. The calls were made as follows: active = growth percent below 10; inactive = the rest.
The reply should be one of these categories: active, inactive

Prompt line: Answer briefly: the call reported for "Nc1ncc(C#Cc2cncc(NC(=O)c3cccc(C(F)(F)F)c3)c2)c2cccnc12" in this assay.
Response line: inactive

Prompt line: What is the recorded call for this compound in the test? "Nc1cc(N)c2cccnc2c1O"
Response line: inactive

Prompt line: Tell me the assay call for COc1cccc(C(Cc2ccccc2)Nc2ccccc2)c1OC (stereo not given) please.
Response line: inactive

Prompt line: // param item: CCN(CC)CCCC(C)Nc1cc(-c2cccc(OC(F)(F)F)c2)nc2ccc(N3CCCC3)cc12 (stereo not given) ; yields the recorded call
Response line: active

Prompt line: Record lookup: outcome of this test for "CCCOc1nc(SCCC)nc2c1cnn2-c1ccccc1" ?
Response line: inactive

Prompt line: I would be grateful if you could indicate the recorded call for "O=C(Nc1nc2ccc(C(=O)N3CCN(c4ccc(Cl)c(Cl)c4)CC3)cc2s1)c1ccc(NCCc2ccccc2)c([N+](=O)[O-])c1" .
Response line: inactive

Prompt line: Which outcome did this test record for the compound COc1ccc(C2=NN(C(C)=O)C(c3cn(Cc4ccc(Cl)cc4)c4ccccc34)C2)cc1 (stereo not given) ?
Response line: inactive

Prompt line: Hi team, can someone confirm the assay call for "Cc1ccc(C(=O)Nc2ccccc2C(=O)N/N=C(\c2ccccc2)c2ccccn2)cc1" ?
Response line: active

Prompt line: # fetch the recorded call for "C=C(C)[C@@H]1CC[C@]2(C=O)CC[C@]3(C)[C@H](CC[C@@H]4[C@@]5(C)CCCNC(C)(C)[C@@H]5CC[C@]43C)[C@@H]12" here
Response line: inactive

Prompt line: Check the results log: what was the call for "COc1ccc(Nc2nc(N)nc3c2CCc2occc2-3)cc1" ?
Response line: inactive

Prompt line: Query: recorded result category for "COc1ccc(CC(C)=C(c2ccc(OCCN(C)C)cc2)c2ccc(OCCN(C)C)cc2)cc1" in this test
Response line: active

Prompt line: Would you mind telling me which call this test gave "CCN(CCNc1cc(OC)cc2cccnc12)CCc1ccccc1" ?
Response line: inactive

Prompt line: Would you mind telling me which call this test gave "CC(=O)O[C@H]1CC[C@@]2(C)[C@@H](CC[C@@H]3[C@@H]2CC[C@@]2(C)[C@H]3CC[C@]2(O)C(C)=O)C1" ?
Response line: inactive

Prompt line: Could you please tell me the result logged for "CN1CCN(C(=O)[C@]2(C)CC[C@]3(C)CC[C@]4(C)C(=CC(=O)[C@@H]5[C@@]6(C)CCC(=O)NC(C)(C)[C@@H]6CC[C@]54C)[C@@H]3C2)CC1" in this assay?
Response line: inactive

Prompt line: Lab log entry: "CN(C)c1ccc(-c2c(C#N)c(N)n3nc(N)c(C#N)c3c2C#N)cc1" — outcome as called in the assay?
Response line: inactive

Prompt line: How did this test come out for "Fc1ccccc1CSc1ncnc2nc[nH]c12" ?
Response line: inactive

Prompt line: Query: recorded result category for "O=C(NCCc1ccccn1)OCc1nc2nc(Cl)nc(N3CCOCC3)c2[nH]1" in this test
Response line: active

Prompt line: Outcome logged for "C#Cc1cccc(NC(=O)Nc2ccc(NC(=O)CCl)cc2)c1" in this assay:
Response line: active

Prompt line: Could you check what this test reported for "NC(=O)C1(N2CCCCC2)CCN(CCCC(=O)c2ccc(F)cc2)CC1" ?
Response line: inactive

Prompt line: For "COc1ccc(CNC(=O)COc2ccc(/C=N/Nc3nc4ccccc4s3)cc2)cc1" , what call appears in the results of this test?
Response line: inactive
